Assay: Oral bioavailability in Sprague-Dawley rat at 3.6 mg/ml
Format: ADME, organism-based
Settings: in vivo
MEASURED ENDPOINT: bioavailability (%)
Numbers only, in %.

Field bioavailability (entry `CS(=O)(=O)c1ccc(-c2cnc3ccc(-c4cccc(S(C)(=O)=O)c4)nn23)cc1` ) reads 77.7

----------
System: Plasmodium falciparum
Experiment: microbe, parasite or virus in culture
Settings: NF54
Description: Antimalarial activity against drug-sensitive Plasmodium falciparum NF54
MEASURED ENDPOINT: IC50 (nM)
Answers are plain numbers, in nM.

Example compounds with recorded IC50:
>>> test_result("CS(=O)(=O)c1ccc(-c2ccc3ncc(-c4ccc(C(F)(F)F)cc4)n3n2)cc1")
764
>>> test_result("O[C@@H](c1cc(C(F)(F)F)nc2c(C(F)(F)F)cccc12)[C@H]1CCCCN1 (relative stereo) [(S,R)-MEFLOQUINE]")
12
>>> test_result("Clc1cccc(-c2ccc3ncc(-c4ccncc4)n3n2)c1")
202

# per-item lookup of IC50; items listed below
1. NCc1cccc(-c2ccc3ncc(-c4ccncc4)n3n2)c1
2. CN1CCN(C(=O)c2cccc(-c3ccc4ncc(-c5ccc(S(C)(=O)=O)cc5)n4n3)c2)CC1
3. c1cc(-c2ccc3ncc(-c4ccncc4)n3n2)cc(N2CCOCC2)c1
4. CS(=O)(=O)c1ccc(-c2cnc3ccc(-c4cccc(C#N)c4)nn23)cc1

stdout:
1: 289; 2: 6.1; 3: 283; 4: 107

----------
Assay: Apparent AUC in GFP-transfected Plasmodium berghei ANKA infected mouse at 40 mg/kg, po qd for 4 days
Format: ADME, organism-based
Parameters: dose 40 mg/kg, route oral
Conditions: in vivo
MEASURED ENDPOINT: AUC at 96 h
Could you give the number and then its unit, please?

Lookup result for `CS(=O)(=O)c1ccc(-c2cnc3ccc(-c4cccc(S(C)(=O)=O)c4)nn23)cc1` ; measured AUC at 96 h: 27.8 µM·h

----------
Assay: Hepatic extraction ratio in human liver microsomes at 1 uM up to 60 mins by LC-MS analysis
Format: ADME
Conditions: read-out: ERH
MEASURED ENDPOINT: hepatic extraction ratio at 1 h, 1 µM

Consider the following illustrative entries.
>>> test_result("CS(=O)(=O)Nc1cccc(-c2ccc3ncc(-c4ccncc4)n3n2)c1")
0.82
>>> test_result("COc1ccc(-c2cnc3ccc(-c4cccnc4)nn23)cc1OC")
0.92
>>> test_result("CS(=O)(=O)c1ccc(-c2ccc3ncc(-c4ccc(C(F)(F)F)cc4)n3n2)cc1")
"< 0.28"
>>> test_result("O=C(c1ccc(-c2ccc3ncc(-c4ccc(C(F)(F)F)cc4)n3n2)cc1)N1CCOCC1")
0.59
>>> test_result("COc1ccc(-c2ccc3ncc(-c4ccncc4)n3n2)cc1OC")
0.86

Consider the following items and state reported hepatic extraction ratio at 1 h, 1 µM for each.
1. CS(=O)(=O)Nc1cccc(-c2ccc3ncc(-c4ccc([S+](N)[O-])cc4)n3n2)c1 (configuration not stated)
2. CS(=O)(=O)Nc1cccc(-c2ccc3ncc(-c4cncnc4)n3n2)c1

stdout:
1. 0.42
2. 0.75

----------
Assign pIC50 to each entry below.
Test system: Plasmodium falciparum
Experiment: microbe, parasite or virus in culture
Conditions: NF54
Numbers only, as −log10 of the molar value.

Previously resolved entries follow.
>>> test_result("C[C@H]1[C@H](OC(=O)CCC(=O)O)O[C@@H]2O[C@@]3(C)CC[C@H]4[C@H](C)CC[C@@H]1[C@@]24OO3 [ARTESUNATE]")
8.40
>>> test_result("CS(=O)(=O)c1ccc(-c2cnc3ccc(-c4ccc(C(F)(F)F)nc4)nn23)cc1")
6.12
>>> test_result("COc1ccc(-c2cnc3ccc(-c4cccnc4)nn23)cc1OC")
7.59
>>> test_result("CC(C)(C)c1cccc(-c2ccc3ncc(-c4ccncc4)n3n2)c1")
6.86
>>> test_result("CC(C)(C)c1ccc(-c2ccc3ncc(-c4ccncc4)n3n2)cc1")
5.73
>>> test_result("CS(=O)(=O)c1cccc(-c2ccc3ncc(-c4ccncc4)n3n2)c1")
7.34
>>> test_result("NCc1ccc(-c2ccc3ncc(-c4ccncc4)n3n2)cc1")
6.47

// moving on: another record for pIC50
In plain terms, `CS(=O)(=O)c1ccc(-c2cnc3ccc(-c4cccc(S(=O)(=O)NC5CC5)c4)nn23)cc1` has a documented pIC50 of 9.18
